measurement.target: SSTR1 (Homo sapiens, UniProt P30872)
Construct: purchased Perkin Elmer ES-520-M400UA; host or cells: CHO-K1 membranes
Sequence (P30872 whole entry): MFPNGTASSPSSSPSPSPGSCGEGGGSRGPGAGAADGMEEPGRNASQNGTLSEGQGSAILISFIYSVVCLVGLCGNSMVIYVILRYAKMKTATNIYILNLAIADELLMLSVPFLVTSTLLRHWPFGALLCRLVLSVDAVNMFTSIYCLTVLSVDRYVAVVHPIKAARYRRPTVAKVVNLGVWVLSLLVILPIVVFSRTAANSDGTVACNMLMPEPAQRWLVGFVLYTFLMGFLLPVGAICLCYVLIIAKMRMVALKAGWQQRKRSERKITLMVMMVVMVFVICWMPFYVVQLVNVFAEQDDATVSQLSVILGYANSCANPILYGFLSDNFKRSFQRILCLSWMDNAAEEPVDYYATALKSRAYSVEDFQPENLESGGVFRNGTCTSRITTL
assay.text: SSTR1 I-125 somatostatin competition binding assay for selectivity versus SSTR1 (CHO-K1 membranes)
test.conditions: competition with I-125 somatostatin, membranes from CHO-K1 overexpressing SSTR1; read-out: SSTR1 Binding pIC50 (converted)
result.type: IC50 (µM)
Give your result in µM as a bare value.

Lookup result for Cc1ccccc1C(NC(=O)CCN1CCC1)C(F)(F)F (single isomer, unassigned) ; measured IC50: 3.98

Lookup result for CN1CCCCC1CC(=O)NC(C)(C)c1ccc(Cl)cc1 (stereo not drawn) ; measured IC50: 31.6

Lookup result for CC[C@@H](CN1CCC1)C(=O)N[C@H](c1cccc(F)c1)C(F)F ; measured IC50: 1

Lookup result for Cc1cccnc1OCC(C)(C)NC(=O)C[C@@H]1CCCN1C ; measured IC50: 25.1

Lookup result for Cc1cccc2c(C(C)(C)NC(=O)CC3CCCCN3C)noc12 (stereo not drawn) ; measured IC50: 6.31
